B1: PPP2R2B (parent)
chain: PSNRSFFSEIISSISDVKFSHSGR

- Variants of: B1
- ASSAY_REMARKS: protein stability index of a GFP-peptide fusion (GPS, HEK-293T) (PSI 1-6); higher = more stable;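 also: lentivirally expressed fusions sorted by FACS into six bins by GFP to DsRed ratio, PSI derived from sequencing read proportions per bin multiplied by bin number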
- PARTICULARS: c terminus: a fixed tail appended
Listed variants paired with reported protein stability index
REPORTED_PROPERTY: protein stability index

# MUTATION_ID, OBSERVED_VALUE
measured = [
    ("I14W", 2.4),
    ("F7P", 2.87),
    ("D16V", 2.17),
    ("S20F", 2.02),
    ("R24C", 1.87),
    ("F19I", 2.43),
    ("F6M", 2.76),
    ("S5I", 1.91),
    ("F6K", 2.99),
    ("S15L", 2.13),
    ("F7A", 3.38),
    ("K18L", 2.35),
    ("S5D", 2.46),
    ("I11L", 2.3),
    ("S12N", 2.5),
    ("F6A", 3.05),
    ("S12M", 2.04),
    ("G23L", 2.08),
    ("G23A", 2.31),
    ("F19S", 3.3),
    ("S5N", 2.36),
    ("F6G", 3.31),
    ("S20N", 2.27),
    ("K18C", 1.94),
    ("F19N", 3.15),
    ("P1D", 2.77),
    ("I11K", 3),
    ("H21Y", 1.97),
    ("S22L", 2.48),
    ("E9H", 1.99),
    ("I10L", 1.79),
    ("F19D", 3.52),
    ("S20R", 1.94),
    ("K18A", 2.15),
    ("I10E", 3.64),
    ("I14G", 3.26),
    ("V17T", 2.72),
    ("N3G", 2.19),
    ("I11E", 3.59),
    ("I10W", 2.33),
    ("E9C", 2.03),
    ("I14T", 3.09),
    ("I10Q", 3.06),
    ("R4G", 3.02),
    ("S13M", 1.76),
    ("S12D", 2.54),
]

The measured values listed here are drawn from the supplement of paper PMC10567573.
